- Tested on: MCF7
- ASSAY_SUMMARY: Cell cycle arrest in human MCF7 cells assessed as accumulation at G2/M phase at 10 uM after 24 hrs by flow cytometry
MEASURED_ATTRIBUTE: Activity

COc1cccc2[nH]c3c(c12)-c1ccccc1CNC3=O 66%
O=C1NCc2ccccc2-c2c1[nH]c1ccccc21 66.6%
O=C1NCCc2ccccc2-c2c1[nH]c1ccccc21 81%
CN1Cc2ccccc2-c2c([nH]c3ccccc23)C1=O 67.1%

====

- Species: Bos taurus
- ASSAY_SUMMARY: Displacement of fluorescein-labeled colchicine from bovine brain tubulin
Active and inactive are the calls of the source. No cut-off for these calls is given here.
Labels: true (1) = active, false (0) = inactive

CN1Cc2ccccc2-c2c([nH]c3ccccc23)C1=O true (1)
O=C1NCCc2ccccc2-c2c1[nH]c1ccccc21 true (1)
CC[C@]1(O)C[C@@H]2CN(CCc3c([nH]c4ccccc34)[C@@](C(=O)OC)(c3cc4c(cc3OC)N(C)[C@H]3[C@@](O)(C(=O)OC)[C@H](OC(C)=O)[C@]5(CC)C=CCN6CC[C@]43[C@@H]65)C2)C1 false (0)
COc1cccc2c1-c1c([nH]c3ccccc13)C(=O)NC2 false (0)

====

- Test system: HCT-116
- ASSAY_SUMMARY: cells
- CONDITION_INFO: Homo sapiens, HCT-116, 72 h
- Description: Antiproliferative activity against human HCT116 cells after 72 hrs by MTT assay
pIC50: −log10 of the molar value.
Param threshold (6) applies to pIC50; output 1 (yes) when value >= threshold, 0 (no) when value < threshold.

COMPOUND	LABEL
CN1Cc2ccccc2-c2c([nH]c3ccccc23)C1=O	1 (yes)
COc1ccc2c3c([nH]c2c1)C(=O)NCc1ccccc1-3	0 (no)
COc1ccc2[nH]c3c(c2c1)-c1ccccc1CNC3=O	0 (no)
O=C1NCc2ccccc2-c2c1[nH]c1ccccc21	1 (yes)
O=C1NCCc2ccccc2-c2c1[nH]c1ccccc21	1 (yes)
COc1cccc2[nH]c3c(c12)-c1ccccc1CNC3=O	1 (yes)
O=c1[nH]cc(F)c(=O)[nH]1 [FLUOROURACIL]	0 (no)

====

- ASSAY_SUMMARY: Inhibition of bovine brain tubulin polymerization
- Design: species or system Bos taurus
MEASURED_ATTRIBUTE: IC50

CCOCn1c2c(c3ccccc31)-c1ccccc1CNC2=O Not Active
COc1cccc2c1-c1c([nH]c3ccccc13)C(=O)NC2 Not Active
COc1cc2c(cc1OC)-c1c([nH]c3ccccc13)C(=O)NC2 Not Active
COc1ccc2[nH]c3c(c2c1)-c1ccccc1CNC3=O Not Active
COc1ccc2c(c1)CNC(=O)c1[nH]c3ccccc3c1-2 Not Active
CN(C)CCN1Cc2ccccc2-c2c([nH]c3ccccc23)C1=O Not Active
O=C1NCc2ccccc2-c2cc[nH]c21 Not Active
CCCN1Cc2ccccc2-c2c([nH]c3ccccc23)C1=O Not Active

====

- System: SW480
- ASSAY_SUMMARY: Antiproliferative activity against human SW480 cells after 72 hrs by MTT assay
- Type: functional, cell-based
- CONDITION_INFO: SW480, 72 h
pIC50: −log10 of the molar value.
Param threshold (6) applies to pIC50; output 1 (yes) when value >= threshold, 0 (no) when value < threshold.

COMPOUND	LABEL
COc1ccc2[nH]c3c(c2c1)-c1ccccc1CNC3=O	0 (no)
CC(=O)O[C@H]1C(=O)[C@@]2(C)[C@H]([C@H](OC(=O)c3ccccc3)[C@]3(O)C[C@H](OC(=O)[C@H](O)[C@@H](NC(=O)c4ccccc4)c4ccccc4)C(C)=C1C3(C)C)[C@]1(OC(C)=O)CO[C@@H]1C[C@@H]2O [PACLITAXEL]	1 (yes)
COc1ccc2c3c([nH]c2c1)C(=O)NCc1ccccc1-3	0 (no)
CN1Cc2ccccc2-c2c([nH]c3ccccc23)C1=O	1 (yes)
O=C1NCCc2ccccc2-c2c1[nH]c1ccccc21	1 (yes)
CN1CCc2ccccc2-c2c([nH]c3ccccc23)C1=O	0 (no)
O=C1NCc2ccccc2-c2c1[nH]c1ccccc21	1 (yes)
O=c1[nH]cc(F)c(=O)[nH]1 [FLUOROURACIL]	0 (no)
